Ref: PubChem BioAssay AID192

- Test system: BDF1 mice, B16 melanoma ip, median survival T/C
- procedure.text: NCI In Vivo Anticancer Drug Screen. Data for tumor model B16 Melanoma (intraperitoneal) in B6D2F1 (BDF1) mice
- condition.set: endpoint: median survival time; dose: 100.0 mg/kg/injection; schedule: Q01DX009 (ip); vehicle: carboxymethylcellulose (CMC); higher = longer survival
Inconclusive results and toxic doses are left out.
property.measured: T/C

[[record]]
molecule = "CC(=O)CC(=O)Nc1ncccc1C"
reported = "107 % of control"

[[record]]
molecule = "S=c1[nH]c2ccccc2s1"
reported = "109 % of control"

[[record]]
molecule = "Cc1cccc(NC(=O)CCl)c1"
reported = "101 % of control"

[[record]]
molecule = "COC(=O)C1C(O)C(C)C(O)C(C)/C=C\\C=C(C)C(=O)Nc2c(C)c(OC(C)=O)c3c(c2O)C(=O)C(C)=C2OCOC(=C23)C(C)=CC(C)(O)C(O)C(C)C1O (centres undefined)"
reported = "102 % of control"


----------
- System: BDF1 mice, B16 melanoma ip, median survival T/C
- procedure.text: NCI In Vivo Anticancer Drug Screen. Data for tumor model B16 Melanoma (intraperitoneal) in B6D2F1 (BDF1) mice
- condition.set: endpoint: median survival time; dose: 75.0 mg/kg/injection; schedule: Q01DX009 (ip); vehicle: saline; higher = longer survival
Inconclusive results and toxic doses are left out.
property.measured: T/C

[[record]]
molecule = "CCC(CCCN(CC)CCc1ccccc1)OC(=O)c1cc(OC)c(OC)c(OC)c1 (centres undefined)"
reported = "91 % of control"

[[record]]
molecule = "OCCN1CCN(CCCN2c3ccccc3Sc3cccnc32)CC1"
reported = "102 % of control"

[[record]]
molecule = "C/C=C(\\C)C(=O)OC1CC[N+]2([O-])CCC(COC(=O)/C(=C/C)CO)C12 (centres undefined)"
reported = "107 % of control"

[[record]]
molecule = "OCC(F)(F)C(F)(F)C(F)(F)F"
reported = "105 % of control"


----------
- Test system: BDF1 mice, B16 melanoma ip, median survival T/C
- procedure.text: NCI In Vivo Anticancer Drug Screen. Data for tumor model B16 Melanoma (intraperitoneal) in B6D2F1 (BDF1) mice
- condition.set: endpoint: median survival time; dose: 200.0 mg/kg/injection; schedule: Q01DX009 (ip); vehicle: saline; higher = longer survival
Inconclusive results and toxic doses are left out.
Measured T/C accompanies every entry in the list below.
property.measured: T/C

[[record]]
compound = "Oc1cc2c(cc1O)[C@H]1c3ccc(O)c(O)c3OC[C@@]1(O)C2"
reported = "108 % of control"

[[record]]
compound = "NC(CCC(=O)NC(CS)C(=O)NCC(=O)O)C(=O)O (centres undefined)"
reported = "98 % of control"

[[record]]
compound = "OCC1(CO)COC2(CCCCC2)N1"
reported = "112 % of control"

[[record]]
compound = "CN(C)CCOC(=O)COc1ccc(Cl)cc1"
reported = "102 % of control"

[[record]]
compound = "NCC(=O)c1ccc(O)c(O)c1"
reported = "110 % of control"

[[record]]
compound = "CN(C)c1n[nH]c(N)n1"
reported = "102 % of control"

[[record]]
compound = "Nc1ccn([C@@H](C=O)O[C@@H](C=O)CO)c(=O)n1"
reported = "113 % of control"

[[record]]
compound = "CCOP(=O)(CCCCN1C(=O)c2ccccc2C1=O)OCC"
reported = "96 % of control"

[[record]]
compound = "CCCCOC(=O)C(CC)(CC)C(=O)OCCCC"
reported = "113 % of control"

[[record]]
compound = "O=C1OCC(O)C(O)C(O)C(O)C1O (centres undefined)"
reported = "106 % of control"

[[record]]
compound = "Clc1ccc2c(c1)C(N1CCOCC1)c1cc(Cl)cc(Cl)c1-2 (centres undefined)"
reported = "95 % of control"

[[record]]
compound = "N#CCc1ccccc1S(=O)(=O)O"
reported = "104 % of control"

[[record]]
compound = "C(COCCOCC1CO1)OCCOCC1CO1 (centres undefined)"
reported = "86 % of control"

[[record]]
compound = "OCC12COCN1COC2"
reported = "119 % of control"

